// provenance: patent US12077483B2

EXPERIMENT_NOTES: RNA encapsulation efficiency of LNP (Ribogreen fluorescence assay)
Format: physicochemical
PARTICULARS: LNP with the compound as amine lipid; Expt. 1; composition ratio (mol %) 50/9/38/3 for Cmpnd 49, 50/10/38.5/1.5 for the others
PROPERTY_NAME: Encapsulation (%)

CCCCCCCCCCCOC(=O)CCCCCCCC(=O)OCC(COC(=O)CCCCCCCC(=O)OCCCCCCCCCCC)OC(=O)CC(CCCCCCCC)OC(=O)NCCN(C)CC (stereo not shown) [Compound 59] : 97
CCCCCCCCCCOC(=O)CCCCCCCC(=O)OCC(COC(=O)CCCCCCCC(=O)OCCCCCCCCCC)OC(=O)CCC(CCCCCCCC)OC(=O)NCCN(C)CC (stereo not shown) [Compound 57] : 98
CCCCC/C=C\C/C=C\CCCCCCCC(=O)OCC(COC(=O)CCCCCCCC(=O)OCCCCCCCCCCC)OC(=O)CCC(CCCCCCCC)OC(=O)NCCN(C)CC (stereo not shown) [Compound 63] : 98
CCCCC/C=C\C/C=C\CCCCCCCC(=O)OCC(COC(=O)CCCCCCC/C=C\C/C=C\CCCCC)COC(=O)CCCC(CCCCCCCC)OC(=O)NCCN(C)CC (stereo not shown) [Compound 55] : 97
CCCCC/C=C\C/C=C\CCCCCCCC(=O)OCC(COC(=O)CCCCCCCC(=O)OCCCCCCCCCCC)OC(=O)CC(CCCCCCCC)OC(=O)NCCN(C)CC (stereo not shown) [Compound 62] : 97
CCCCC/C=C\C/C=C\CCCCCCCC(=O)OCC(COC(=O)CCC(OCCCCCCCC)OCCCCCCCC)COC(=O)OCCCN(CC)CC (stereo not shown) [Compound 49, reference compound] : 98
CCCCC/C=C\C/C=C\CCCCCCCC(=O)OCC(COC(=O)CCCCCCC/C=C\C/C=C\CCCCC)OC(=O)CC(CCCCCCCC)OC(=O)NCCN(C)CC (stereo not shown) [Compound 52] : 98
CCCCC/C=C\C/C=C\CCCCCCCC(=O)OCC(COC(=O)CCCCCCC/C=C\C/C=C\CCCCC)OC(=O)CCC(CCCCCCCC)OC(=O)NCCN(C)CC (stereo not shown) [Compound 34] : 98
CCCCC/C=C\C/C=C\CCCCCCCC(=O)OCC(COC(=O)CCCCCCC/C=C\C/C=C\CCCCC)OC(=O)CCC(CCCCCCCCCCCC)OC(=O)OCCCN(C)C (stereo not shown) [Compound 1] : 99
CCCCCCCCCCCOC(=O)CCCCCCCC(=O)OCC(COC(=O)CCCCCCCC(=O)OCCCCCCCCCCC)OC(=O)CCCC(CCCCCCCC)OC(=O)NCCN(C)CC (stereo not shown) [Compound 61] : 97
CCCCCCCCCCCOC(=O)CCCCCCCC(=O)OCC(COC(=O)CCCCCCCC(=O)OCCCCCCCCCCC)OC(=O)CCC(CCCCCCCC)OC(=O)NCCN(C)CC (stereo not shown) [Compound 60] : 97
CCCCC/C=C\C/C=C\CCCCCCCC(=O)OCC(COC(=O)CCCCCCC/C=C\C/C=C\CCCCC)COC(=O)CC(CCCCCCCC)OC(=O)NCCN(C)CC (stereo not shown) [Compound 53] : 99
CCCCC/C=C\C/C=C\CCCCCCCC(=O)OCC(COC(=O)CCCCCCCC(=O)OCCCCCCCCCCC)OC(=O)CCCC(CCCCCCCC)OC(=O)NCCN(C)CC (stereo not shown) [Compound 64] : 97
